Listed next: entries and their corresponding switch fluorescence ratio.
# System: ATP;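 also: ATP exposure 15 min at 22 °C before imaging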
# Experiment Notes: switch fluorescence ratio, 500 uM ATP over buffer (Cy3 cluster intensity, sum of 5 cycles each) (fold (ratio)); higher = stronger signal-on switching upon ATP binding; sequences stand for … in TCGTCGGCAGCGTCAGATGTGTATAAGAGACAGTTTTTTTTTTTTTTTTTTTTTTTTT…TC
# Condition Notes: aptamer strand: ATP DNA aptamer (quencher-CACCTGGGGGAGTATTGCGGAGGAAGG + anchor), 100 nM annealed; ATP concentration: 500 uM
Response field accepts a number only; no unit should be typed.

- Seq String: "TGTTTAAAAA"
  Result: 0.987

Which switch fluorescence ratio value belongs to TCGGTCCCTT ?
0.988

Can you handle TGCTGGCATA next?
1.18

Can you handle CATCGACTGG next?
0.965

Can you handle GAACGGCATG next?
1.04

Can you handle CGATATCTAC next?
1.06
